Assay: Binding affinity to Haemophilus influenzae OASS-A expressed in Escherichia coli using OAS/TNB as substrate assessed as dissociation constant
recorded_metric: pKd
Give bare numbers, as −log10 of the molar value.

Query: // query pKd value for entry C/C=C/[C@H]1C[C@@H]1C(=O)O (racemic)
Result: 3.70
